System: SNB-19
Assay: NCI 60 panel growth inhibition (SRB), CNS cancer
Type: cell-based, human
Conditions: SNB-19, 10 μM
Rule: Fulfilled for GI% not less than 70%, Not fulfilled for anything less.

COMPOUND | GROUP_LABEL
COc1cccc(-c2nc3ccccc3s2)c1OCC(=O)NN=C1C(=O)Nc2ccc(C)cc21 [Compound 9h] | Not fulfilled
COc1cccc(-c2nc3ccccc3s2)c1OCC(=O)NN=C1C(=O)Nc2ccc([N+](=O)[O-])cc21 [Compound 9j] | Not fulfilled
Cc1ccc2c(c1)C(=NNC(=O)COc1ccccc1-c1nc3ccccc3s1)C(=O)N2 [Compound 9b] | Fulfilled
O=C(COc1ccccc1-c1nc2ccccc2s1)NN=C1C(=O)Nc2ccc(Br)cc21 [Compound 9f] | Fulfilled
COc1ccc2c(c1)C(=NNC(=O)COc1cc(-c3nc4ccccc4s3)ccc1OC)C(=O)N2 [Compound 9o] | Not fulfilled
COc1cccc(-c2nc3ccccc3s2)c1OCC(=O)NN=C1C(=O)Nc2ccccc21 [Compound 9g] | Not fulfilled

====

Tested on: OVCAR-8
Test: NCI 60 panel growth inhibition (SRB), ovarian cancer
Type: cell-based, human
Details: OVCAR-8, 10 μM
I would appreciate it if you labelled entries yes when GI% is 20% or higher, otherwise no.

MOLECULE | GROUP_LABEL
COc1ccc2c(c1)C(=NNC(=O)COc1c(OC)cccc1-c1nc3ccccc3s1)C(=O)N2 [Compound 9i] | no
O=C(COc1ccccc1-c1nc2ccccc2s1)NN=C1C(=O)Nc2ccc(Br)cc21 [Compound 9f] | yes
COc1ccc(-c2nc3ccccc3s2)cc1OCC(=O)NN=C1C(=O)Nc2ccc([N+](=O)[O-])cc21 [Compound 9p] | yes
COc1ccc2c(c1)C(=NNC(=O)COc1cc(-c3nc4ccccc4s3)ccc1OC)C(=O)N2 [Compound 9o] | yes
COc1cccc(-c2nc3ccccc3s2)c1OCC(=O)NN=C1C(=O)Nc2ccccc21 [Compound 9g] | no
COc1ccc(-c2nc3ccccc3s2)cc1OCC(=O)NN=C1C(=O)Nc2ccc(Cl)cc21 [Compound 9q] | yes
Cc1ccc2c(c1)C(=NNC(=O)COc1ccccc1-c1nc3ccccc3s1)C(=O)N2 [Compound 9b] | yes
COc1ccc2c(c1)C(=NNC(=O)COc1ccccc1-c1nc3ccccc3s1)C(=O)N2 [Compound 9c] | no

====

Test system: PC-3
Test: NCI 60 panel growth inhibition (SRB), prostate cancer
Type: cell-based, human
Settings: PC-3, 10 μM
Entry flag: Met if GI% reaches 20%; Not met if it does not.

COMPOUND | GROUP_LABEL
COc1ccc(-c2nc3ccccc3s2)cc1OCC(=O)NN=C1C(=O)Nc2ccc(Br)cc21 [Compound 9r] | Not met
O=C(COc1ccccc1-c1nc2ccccc2s1)NN=C1C(=O)Nc2ccc(Br)cc21 [Compound 9f] | Met
COc1cccc(-c2nc3ccccc3s2)c1OCC(=O)NN=C1C(=O)Nc2ccc(C)cc21 [Compound 9h] | Met
COc1cccc(-c2nc3ccccc3s2)c1OCC(=O)NN=C1C(=O)Nc2ccc([N+](=O)[O-])cc21 [Compound 9j] | Not met
COc1ccc(-c2nc3ccccc3s2)cc1OCC(=O)NN=C1C(=O)Nc2ccc([N+](=O)[O-])cc21 [Compound 9p] | Not met
COc1ccc(-c2nc3ccccc3s2)cc1OCC(=O)NN=C1C(=O)Nc2ccc(Cl)cc21 [Compound 9q] | Met
COc1ccc2c(c1)C(=NNC(=O)COc1ccccc1-c1nc3ccccc3s1)C(=O)N2 [Compound 9c] | Met
COc1ccc2c(c1)C(=NNC(=O)COc1cc(-c3nc4ccccc4s3)ccc1OC)C(=O)N2 [Compound 9o] | Met
Cc1ccc2c(c1)C(=NNC(=O)COc1ccccc1-c1nc3ccccc3s1)C(=O)N2 [Compound 9b] | Met
COc1ccc(-c2nc3ccccc3s2)cc1OCC(=O)NN=C1C(=O)Nc2ccccc21 [Compound 9m] | Not met
O=C(COc1ccccc1-c1nc2ccccc2s1)NN=C1C(=O)Nc2ccccc21 [Compound 9a] | Not met
COc1ccc2c(c1)C(=NNC(=O)COc1c(OC)cccc1-c1nc3ccccc3s1)C(=O)N2 [Compound 9i] | Met
CNC(=O)c1nn(C)c2c1C(C)(C)Cc1cnc(Nc3ccc(N4CCN(C)CC4)cc3)nc1-2 [Milciclib, reference compound] | Met
COc1cccc(-c2nc3ccccc3s2)c1OCC(=O)NN=C1C(=O)Nc2ccccc21 [Compound 9g] | Met

====

System: SK-OV-3
Test: NCI 60 panel growth inhibition (SRB), ovarian cancer
Type: cell-based, human
Conditions: SK-OV-3, 10 μM
METRIC_NAME: GI%

MOL | VALUE
COc1cccc(-c2nc3ccccc3s2)c1OCC(=O)NN=C1C(=O)Nc2ccc(C)cc21 | 14.52%
Cc1ccc2c(c1)C(=NNC(=O)COc1ccccc1-c1nc3ccccc3s1)C(=O)N2 | 15.84%
COc1cccc(-c2nc3ccccc3s2)c1OCC(=O)NN=C1C(=O)Nc2ccc(Br)cc21 | – (GI% < 5%)
O=C(COc1ccccc1-c1nc2ccccc2s1)NN=C1C(=O)Nc2ccccc21 | – (GI% < 5%)
O=C(COc1ccccc1-c1nc2ccccc2s1)NN=C1C(=O)Nc2ccc(Br)cc21 | 17.03%
COc1cccc(-c2nc3ccccc3s2)c1OCC(=O)NN=C1C(=O)Nc2ccc([N+](=O)[O-])cc21 | – (GI% < 5%)
COc1ccc2c(c1)C(=NNC(=O)COc1ccccc1-c1nc3ccccc3s1)C(=O)N2 | – (GI% < 5%)
O=C(COc1ccccc1-c1nc2ccccc2s1)NN=C1C(=O)Nc2ccc(Cl)cc21 | – (GI% < 5%)

====

System: TK-10
Experiment: NCI 60 panel growth inhibition (SRB), renal cancer
Assay type: cell-based, human
Conditions: TK-10, 10 μM
METRIC_NAME: GI% (%)

MOLECULE | SYSTEM_UNDER_TEST | VALUE
Cc1ccc2c(c1)C(=NNC(=O)COc1ccccc1-c1nc3ccccc3s1)C(=O)N2 | TK-10 | 93.55
COc1ccc(-c2nc3ccccc3s2)cc1OCC(=O)NN=C1C(=O)Nc2ccc([N+](=O)[O-])cc21 | TK-10 | 96.63
CNC(=O)c1nn(C)c2c1C(C)(C)Cc1cnc(Nc3ccc(N4CCN(C)CC4)cc3)nc1-2 [Milciclib, reference compound] | TK-10 | 112.5
COc1ccc(-c2nc3ccccc3s2)cc1OCC(=O)NN=C1C(=O)Nc2ccc(Cl)cc21 | TK-10 | 62.99
O=C(COc1ccccc1-c1nc2ccccc2s1)NN=C1C(=O)Nc2ccc(Br)cc21 | TK-10 | 55.14

====

Test system: IGROV1
Assay: NCI 60 panel growth inhibition (SRB), ovarian cancer
Format: cell-based, human
Conditions: IGROV1, 10 μM

MOLECULE | GI% [%]
COc1cccc(-c2nc3ccccc3s2)c1OCC(=O)NN=C1C(=O)Nc2ccccc21 | 7.95
O=C(COc1ccccc1-c1nc2ccccc2s1)NN=C1C(=O)Nc2ccc(Br)cc21 | 42.62
COc1cccc(-c2nc3ccccc3s2)c1OCC(=O)NN=C1C(=O)Nc2ccc(C)cc21 | 6.64
COc1ccc(-c2nc3ccccc3s2)cc1OCC(=O)NN=C1C(=O)Nc2ccc([N+](=O)[O-])cc21 | 41.60
CNC(=O)c1nn(C)c2c1C(C)(C)Cc1cnc(Nc3ccc(N4CCN(C)CC4)cc3)nc1-2 [Milciclib, reference compound] | 97.50

====

Tested on: M14
Assay: NCI 60 panel growth inhibition (SRB), melanoma
Format: cell-based, human
Conditions: M14, 10 μM
METRIC_NAME: GI%

MOL | SYSTEM_UNDER_TEST | METRIC_NAME | VALUE
COc1ccc(-c2nc3ccccc3s2)cc1OCC(=O)NN=C1C(=O)Nc2ccccc21 | M14 | GI% | – (GI% < 5%)
COc1ccc(-c2nc3ccccc3s2)cc1OCC(=O)NN=C1C(=O)Nc2ccc(C)cc21 | M14 | GI% | – (GI% < 5%)
COc1cccc(-c2nc3ccccc3s2)c1OCC(=O)NN=C1C(=O)Nc2ccc(Cl)cc21 | M14 | GI% | – (GI% < 5%)
COc1cccc(-c2nc3ccccc3s2)c1OCC(=O)NN=C1C(=O)Nc2ccc(C)cc21 | M14 | GI% | 9.67%

====

Test system: SK-MEL-2
Assay: NCI 60 panel growth inhibition (SRB), melanoma
Type: cell-based, human
Conditions: SK-MEL-2, 10 μM
This listing pairs compounds with measured GI%.

MOL | GI% / %
COc1ccc(-c2nc3ccccc3s2)cc1OCC(=O)NN=C1C(=O)Nc2ccc(Cl)cc21 | 56.54
COc1ccc(-c2nc3ccccc3s2)cc1OCC(=O)NN=C1C(=O)Nc2ccc([N+](=O)[O-])cc21 | 115.65
COc1ccc(-c2nc3ccccc3s2)cc1OCC(=O)NN=C1C(=O)Nc2ccc(Br)cc21 | 17.63
COc1cccc(-c2nc3ccccc3s2)c1OCC(=O)NN=C1C(=O)Nc2ccc(Cl)cc21 | 12.78
COc1ccc2c(c1)C(=NNC(=O)COc1cc(-c3nc4ccccc4s3)ccc1OC)C(=O)N2 | 26.06
COc1cccc(-c2nc3ccccc3s2)c1OCC(=O)NN=C1C(=O)Nc2ccc(Br)cc21 | 9.60

The origin of these recorded values is paper PMC11396129.
